Collected pIC50 for Human KLK1 (Homo sapiens (Human)) across several studies; compounds listed below.
pIC50: −log10 of the molar value.

{"columns": ["molecule", "pIC50"],
 "data": [
  ["COc1ccc(-n2cc(C)nn2)c(CNC(=O)c2cn(Cc3cc4n(n3)C3(CC3)CN(C)C4)nc2C(F)F)c1F", "< 4.40"]
]}

Query block: State its pIC50 for this compound: COCc1nn(Cc2ccc3c(c2)CNCCO3)cc1C(=O)NCc1c(-n2cc(C)nn2)ccc(OC)c1F
Result block: < 4.40

Query block: State its pIC50 for this compound: COCc1nn(Cc2ccc(Cn3ccccc3=O)cc2)cc1C(=O)NCc1cc(F)ccc1-n1cnnn1
Result block: < 5.40

Query block: State its pIC50 for this compound: COc1cccc(CNC(=O)c2cn(Cc3ccc(Cn4ccccc4=O)cc3)nc2N(C)C(C)=O)c1F
Result block: < 5.00
